Source: ChEMBL document CHEMBL3585263

# Protocol details: Clearance in beagle dog at 10 mg/kg, po and 1 mg/kg, iv
# Type: ADME, organism-based, Canis lupus familiaris
# Condition description: in vivo
Measurement label: clearance (mL/min/kg)
Output spec: scalar in mL/min/kg, unitless text.

Asked: What measured clearance goes with Cc1cc(C)nc(N2C[C@H]3CN(C(=O)c4c(F)cccc4-n4nccn4)C[C@H]3C2)n1 ?
Given back: 9.8

###

Please go through the items and note down their Papp B→A at 10 µM.
# Protocol details: Apparent permeability from basolateral to apical side in human Caco2/TC7 cells at 10 uM
# Condition description: Caco-2
Output spec: scalar in ×10⁻⁶ cm/s, unitless text.

Asked: What measured Papp B→A at 10 µM goes with Cc1cc(C)nc(N2C[C@H]3CN(C(=O)c4ccc(F)cc4-n4nccn4)C[C@H]3C2)n1 ?
Given back: 26.8

Asked: What measured Papp B→A at 10 µM goes with Cc1cc(C)nc(N2C[C@H]3CN(C(=O)c4cccc(F)c4-n4nccn4)C[C@H]3C2)n1 ?
Given back: 49.7
